Run Description: M. tuberculosis growth inhibition, HTS (AID 449762);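 further: bacterial growth assessed after seven days of incubation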
Condition Summary: M. tuberculosis H37Rv growth inhibition, 7H9 media; at 25 µM; stronger effect = higher value
In all, about 330,000 compounds went through this assay and about 1,900 (0.58%) were called active. Roughly 4% stayed inconclusive and do not appear here. The list is a sample of the results. Potency and affinity values are given separately.
Parameter: inhibition

Here is how some molecules turned out for inhibition.
- Molecule: "CC(=O)N(c1ccc(Cl)cc1)c1cn(C(C)=O)c2ccccc12"
  Observed Value: "8.81% (inactive)"
- Molecule: "NC(=O)CSc1nc2cc(Cl)ccc2c(=O)n1C1CCCCC1"
  Observed Value: "-1.2% (inactive)"
- Molecule: "Cc1cc(/C([O-])=C(/C(=S)Nc2ccc(F)cc2)[n+]2ccccc2)c(C)n1-c1ccc(F)cc1"
  Observed Value: "-9.36% (inactive)"
- Molecule: "COc1cc(NC(=O)CN2CCN(c3ccccc3O)CC2)c(C)cc1[N+](=O)[O-]"
  Observed Value: "-10.9% (inactive)"
- Molecule: "Cc1ccc(Cn2c([N+](=O)[O-])cnc2C)cc1"
  Observed Value: "2.64% (inactive)"

IN: I am curious: what inhibition value has been reported for Cc1nn(-c2ccc(F)cc2F)c2c1-c1nc(N3CCCC3)ncc1CC2 ?
OUT: 69.4% (inactive)

IN: # get_value(readout='inhibition', item= COc1ccc(N=NC2=C(O)CC(C)(C)CC2=O)cc1 )
OUT: -3.64% (inactive)

IN: Give the measured inhibition of CCCNC(=O)CSc1n[nH]c(=O)n1CCc1ccccc1 .
OUT: 7.69% (inactive)

IN: Which measured inhibition value corresponds to Cc1nonc1OCCN1CCN(c2ccc([N+](=O)[O-])cc2)CC1 ?
OUT: 9.04% (inactive)

IN: Endpoint output: inhibition of CCc1cc(-c2[nH]ncc2-c2ccc([N+](=O)[O-])cc2)c(O)cc1OC . Value?
OUT: 1.64% (inactive)

IN: // query inhibition value for entry Cc1nonc1OC(C)CNc1ccc([N+](=O)[O-])cc1 (centres undefined)
OUT: 8.67% (inactive)

IN: What does the data say about its inhibition? Entry: O=C(COc1ccc(Cl)cc1)OCc1csc(Nc2ccccc2)n1
OUT: 4.58% (inactive)

IN: Entry under review: O=C(Cc1c(Cl)cccc1Cl)N1CCN(Cc2ccccc2)CC1 . Reported inhibition?
OUT: 7.3% (inactive)

IN: I am curious: what inhibition value has been reported for COc1ccc(C(=O)Nc2cccc(-c3nc4ncccc4o3)c2C)cc1 ?
OUT: 2.93% (inactive)

IN: Dear colleague, I am looking for the recorded inhibition of the following molecule: OC(CNCC1CCCO1)COc1ccc(OCC(O)CNCC2CCCO2)cc1 (centres undefined)
OUT: 5.75% (inactive)

IN: For the molecule CC(=O)n1cc(CO)c2ccccc21 , what inhibition is on record?
OUT: -8.42% (inactive)

IN: Find the recorded inhibition belonging to Cc1ccccc1CN1CCCN(Cc2ccc(Cl)cc2)S1(=O)=O and report it.
OUT: 2.25% (inactive)
